Test system: SK-ES-1
EXPERIMENT: relative viability vs DMSO control (72 h) (fraction); higher = more viable cells
CONDITIONS_USED: 0.00051 µM
The compounds listed here are annotated with their relative viability.
Lab note: jot down the number only; don't add units.

1. Clc1ccc(Nc2nnc(Cc3ccncc3)c3ccccc23)cc1 ... 0.987
2. CC[C@@H]1CN(C(=O)NCC(F)(F)F)C[C@@H]1c1cnc2cnc3[nH]ccc3n12 ... 1.01
3. N#CC1(c2ccc(NC(=O)c3cccnc3NCc3ccncc3)cc2)CCCC1 ... 0.986

Shift focus to the following entry.
Just so you know, measured relative viability for CC(C)NC[C@@H](C(=O)N1CCN(c2ncnc3c2[C@H](C)C[C@H]3O)CC1)c1ccc(Cl)cc1 came out at 1.04
